- Test system: Bombyx mori
- TEST PROTOCOL: Induction of precocious metamorphosis-inducing activity against fourth-instar larvae of Bombyx mori Shunrei x shogetsu compound treated topically
- Assay type: functional
Listed next: entries and their corresponding ED50.
Give just the number in µg; leave the unit off.

# count of solved cases: 5
# MOLECULE, ED50 (µg)
rows = [
    ("CCc1cccc(OCCCn2ccnc2)c1", 36),
    ("CCCCOc1ccc(OCCCn2ccnc2)cc1", 27),
    ("CCCCCCOc1ccc(-n2ccnc2)cc1", 63),
    ("CCC(C)c1ccc(OCCCn2ccnc2)cc1 (configuration not stated)", 91),
    ("CCCCCCCCCCCCn1ccnc1", 15),
]

Next molecule, please.
State its ED50 for this molecule: CCCCCCCCCCn1ccnc1
18
